TARGET DESC: Recombinant Human NF-kappaB-Inducing Kinase (NIK/MAP3K14) (Homo sapiens)
Sequence (Q99558 whole entry): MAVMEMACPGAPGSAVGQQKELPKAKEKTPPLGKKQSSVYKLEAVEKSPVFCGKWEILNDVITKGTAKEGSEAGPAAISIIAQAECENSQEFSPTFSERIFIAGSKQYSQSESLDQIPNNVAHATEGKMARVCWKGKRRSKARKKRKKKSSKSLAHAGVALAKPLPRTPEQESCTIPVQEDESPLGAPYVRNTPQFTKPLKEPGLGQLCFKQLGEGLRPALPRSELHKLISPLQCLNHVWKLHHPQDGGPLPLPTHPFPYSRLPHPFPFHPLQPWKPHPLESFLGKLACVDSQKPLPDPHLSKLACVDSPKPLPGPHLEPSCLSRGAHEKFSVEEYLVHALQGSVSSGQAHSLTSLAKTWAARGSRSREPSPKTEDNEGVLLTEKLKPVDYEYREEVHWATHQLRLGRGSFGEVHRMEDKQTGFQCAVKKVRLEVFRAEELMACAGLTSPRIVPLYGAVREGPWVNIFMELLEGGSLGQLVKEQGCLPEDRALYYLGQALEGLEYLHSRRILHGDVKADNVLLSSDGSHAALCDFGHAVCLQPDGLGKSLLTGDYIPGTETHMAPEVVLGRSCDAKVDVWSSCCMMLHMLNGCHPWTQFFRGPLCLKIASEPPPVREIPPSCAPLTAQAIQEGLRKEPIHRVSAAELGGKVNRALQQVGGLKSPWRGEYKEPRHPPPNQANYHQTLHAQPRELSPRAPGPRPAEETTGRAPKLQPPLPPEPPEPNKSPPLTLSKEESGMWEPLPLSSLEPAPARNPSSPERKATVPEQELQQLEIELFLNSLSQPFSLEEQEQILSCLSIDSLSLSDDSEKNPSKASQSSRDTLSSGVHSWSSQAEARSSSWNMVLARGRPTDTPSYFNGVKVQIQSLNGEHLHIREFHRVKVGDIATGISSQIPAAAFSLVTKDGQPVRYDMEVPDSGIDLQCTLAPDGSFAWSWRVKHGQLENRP
ASSAY EXPLANATION: Inhibition of auto-phosphorylation of recombinant human NIK/MAP3K14 activity (AlphaScreen)
ASSAY CONTEXT: 5 μM ATP, 1 nM NIK, average if tested more than once
Readings of IC50 for the listed compounds

In the examples that follow, each entry is paired with its recorded IC50.
Cc1ccc(CNc2nccc(-c3csc(-c4cccc([C@]5(O)CCN(C)C5=O)c4)n3)n2)cn1 = < 100 nM
CC(Nc1nccc(-c2nc(-c3cccc(C4(O)CCN(C)C4=O)c3)cs2)n1)c1ccn(C)n1 (single isomer, unassigned) [Example 50] = 100 to 500 nM

Field: next compound
**Query** Recorded IC50 for CN1CC[C@@](O)(c2cccc(-c3nc(-c4ccnc(N[C@H]5C[C@H](O)C5)n4)cs3)c2)C1=O , please?
**Result** 100 to 500 nM

---

Readings of pIC50 for the listed compounds
Tested on: p-IKKa levels in L363 (NIK translocated multiple myeloma) cells
ASSAY EXPLANATION: Effect of compounds on p-IKKa levels in L363 (NIK translocated multiple myeloma) cells (AlphaLISA SureFire Ultra p-IKKa Ser176/180)
Assay type: cell-based, human
ASSAY CONTEXT: Homo sapiens, L-363, p-IKKa levels in L363 cells; average if tested more than once; read-out: Assay 2 IC50
pIC50: −log10 of the molar value.

**Query** Recorded pIC50 for CN1CC[C@@](O)(c2cccc(-c3nc(-c4ccnc(N[C@H]5CCC[C@H](O)C5)n4)cs3)c2)C1=O [Example 254] , please?
**Result** < 6.30

---

System: p-IKKa levels in L363 (NIK translocated multiple myeloma) cells
ASSAY EXPLANATION: Effect of compounds on p-IKKa levels in L363 (NIK translocated multiple myeloma) cells (AlphaLISA SureFire Ultra p-IKKa Ser176/180)
Type: cell-based, human
ASSAY CONTEXT: Homo sapiens, L-363, p-IKKa levels in L363 cells; average if tested more than once; read-out: Assay 2 IC50
MEASURE NAME: IC50

In the examples that follow, each entry is paired with its recorded IC50.
CN1CC[C@@](O)(c2cccc(-c3nc(-c4ccnc(N[C@@H]5CCOC5)n4)cs3)c2)C1=O = > 0.501 µM
CN1CC[C@@](O)(c2cccc(-c3ccn(-c4ccnc(NC5COC5)n4)n3)c2)C1=O = 0.1 to 0.5 µM
COc1c(Nc2nccc(-c3csc(-c4cccc([C@]5(O)CCN(C)C5=O)c4)n3)n2)ccnc1C = > 0.501 µM

Field: next molecule
**Query** Recorded IC50 for CN1CC[C@@](O)(c2cccc(-c3nc(-c4ccnc(NCCCNS(C)(=O)=O)n4)cs3)c2)C1=O , please?
**Result** > 0.501 µM

---

Tested on: p-IKKa levels in L363 (NIK translocated multiple myeloma) cells
ASSAY EXPLANATION: Effect of compounds on p-IKKa levels in L363 (NIK translocated multiple myeloma) cells (AlphaLISA SureFire Ultra p-IKKa Ser176/180)
Format: cell-based, human
ASSAY CONTEXT: Homo sapiens, L-363, p-IKKa levels in L363 cells; average if tested more than once; read-out: Assay 2 IC50
pIC50: −log10 of the molar value.
Readings of pIC50 for the listed compounds

In the examples that follow, each entry is paired with its recorded pIC50.
CN1CC[C@@](O)(c2cccc(-c3nc(-c4ccnc(Nc5ccn(CC(F)F)n5)n4)cs3)c2)C1=O = 6.30 to 7.00
CN1CC[C@@](O)(c2cccc(-c3nc(-c4ccnc(Nc5cc6ccccn6n5)n4)cs3)c2)C1=O = < 6.30

Field: next compound
**Query** Recorded pIC50 for CN1CC[C@@](O)(c2cccc(-c3ccn(-c4ccnc(Nc5ccn(C)n5)n4)n3)c2)C1=O , please?
**Result** 6.30 to 7.00

Where do these numbers come from? They come from patent US20250304567A1.
